ENDPOINT NAME: melting point

COMPOUND | RESULT
CCNC(=O)n1nc(Oc2ncc(C(F)(F)F)cc2Cl)cc1CC | 85 to 86 °C
CCNC(=O)n1nc(Oc2ncc(C(F)(F)F)cc2Cl)c(CC)c1C | 101 to 102 °C
Cc1cc(Oc2cccc(C(F)(F)F)c2)nn1C(=O)NCC1CCCO1 (centres unmarked) | 101 to 102 °C
CCNC(=O)n1nc(Oc2c(Cl)cc(C(F)(F)F)cc2Cl)cc1-c1ccc(Cl)cc1 | 88 to 89 °C

Now look at this entry.
Qu. Entry CCNC(=O)n1nc(Oc2c(Cl)cc(C(F)(F)F)cc2[N+](=O)[O-])cc1C : reported melting point = ?
Ans. 98 to 99 °C
